Numbers sourced from patent US20110269811A1.

- target.entity: Recombinant human MAO-A (Homo sapiens)
- Sequence (P21397 whole entry): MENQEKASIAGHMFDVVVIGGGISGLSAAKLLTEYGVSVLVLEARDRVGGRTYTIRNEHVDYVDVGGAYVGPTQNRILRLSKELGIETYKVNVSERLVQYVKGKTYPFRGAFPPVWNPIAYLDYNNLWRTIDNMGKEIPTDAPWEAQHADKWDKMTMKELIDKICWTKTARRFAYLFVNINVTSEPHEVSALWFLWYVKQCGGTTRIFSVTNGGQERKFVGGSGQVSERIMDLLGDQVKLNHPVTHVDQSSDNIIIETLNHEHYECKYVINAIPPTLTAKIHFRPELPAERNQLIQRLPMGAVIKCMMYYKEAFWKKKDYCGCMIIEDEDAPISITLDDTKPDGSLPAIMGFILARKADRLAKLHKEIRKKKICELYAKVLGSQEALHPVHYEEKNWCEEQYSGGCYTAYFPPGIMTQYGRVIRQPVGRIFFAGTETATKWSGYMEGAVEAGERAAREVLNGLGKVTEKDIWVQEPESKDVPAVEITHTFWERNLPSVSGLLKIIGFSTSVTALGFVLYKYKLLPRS
- run.description: MAO-A activity, colorimetric method, tyramine substrate
- run.conditions: recombinant human MAO-A
Where a name gives a salt, the structure may show the parent alone.
observed.property: IC50 (µM)

>  <molecule>
CCCCOc1ccc(CC/C(=C\Cl)CN)cc1.Cl [Compound I-47-E, hydrochloride]

>  <qualifier.operator>
=

>  <experimental.result>
135

$$$$
>  <molecule>
COc1cccc(C/C(C)=C(/F)CN)c1 [II-18-E, hydrochloride]

>  <qualifier.operator>
>

>  <experimental.result>
1000

$$$$
>  <molecule>
NC/C(=C\F)CCc1cc(F)cc(C(F)(F)F)c1.O=C(O)C(F)(F)F [Compound I-109-Z, trifluoroacetate]

>  <qualifier.operator>
=

>  <experimental.result>
21

$$$$
>  <molecule>
Cl.NC/C(=C\F)Cc1ccc(Cl)cc1 [Compound I-3-Z, hydrochloride]

>  <qualifier.operator>
=

>  <experimental.result>
91

$$$$
>  <molecule>
CSc1ccc(C/C(=C/F)CN)cc1.Cl [Compound I-9-Z, hydrochloride]

>  <qualifier.operator>
=

>  <experimental.result>
109

$$$$
>  <molecule>
CCOc1ccc(CC/C(=C\Cl)CN)cc1.Cl [Compound I-45-Z, hydrochloride]

>  <qualifier.operator>
=

>  <experimental.result>
20

$$$$
>  <molecule>
CC(C)Oc1ccc(C/C(=C/F)CN)cc1.Cl [Compound I-8-Z, hydrochloride]

>  <qualifier.operator>
=

>  <experimental.result>
35

$$$$
>  <molecule>
Cl.NC/C(=C\F)Cc1cccc(F)c1 [Compound I-19-Z, hydrochloride]

>  <qualifier.operator>
=

>  <experimental.result>
34

$$$$
>  <molecule>
CCOc1ccc(C/C(=C/F)CN)cc1.Cl [Compound I-2-Z, hydrochloride]

>  <qualifier.operator>
=

>  <experimental.result>
79

$$$$
